FYI, the data here is from PubChem BioAssay AID1159580.

Test: chemical genetic growth profiling, strain panel (AID 1159580);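 note: tested at 20 µM; growth read once vehicle control cultures reached saturation at 30 °C; 1 = growth at the plate median or of vehicle wells; lower values mean less growth of the strain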
Settings: S. cerevisiae deletion strains, growth OD, locus YPL256C, strain CLN2
Screen size: about 5,500 compounds; about 2,000 (36%) were called active. Roughly 18% stayed inconclusive and do not appear here. Cut-off read from the data, not from the text of the source: active = normalized growth mostly below about 0.91 (no sharp cut-off); inconclusive = no clear call, values can overlap the other calls; inactive = mostly above about 0.92. The list shows a part of the results.
Outcomes: active, inactive

- compound: "COC1=C(OC)C(=O)C(CCCCCCCCCCO)=C(C)C1=O"
  label: "inactive"
- compound: "CC(=O)c1c(O)cc(O)cc1O"
  label: "inactive"
- compound: "O=C1NS(=O)(=O)c2ccccc21"
  label: "inactive"
- compound: "COc1cc(O)c2c(c1)C(=O)c1cc(C)cc(O)c1C2=O"
  label: "inactive"
- compound: "N#CC(C(=O)Nc1cccc(C(F)(F)F)c1)C(=S)Nc1ccccc1Cl (configuration not stated)"
  label: "active"
- compound: "O=C1c2ccccc2C(=O)C1(O)C1(O)C(=O)c2ccccc2C1=O"
  label: "inactive"
- compound: "CC(C)N1C(=O)c2ccccc2NS1(=O)=O"
  label: "inactive"

* * *

Assay: chemical genetic growth profiling, strain panel (AID 1159580)
Settings: S. cerevisiae deletion strains, growth OD, locus YEL061C, strain CIN8, stronger effect = lower value
Out of some 5,500 compounds screened, about 2,000 (36%) were called active. Another 18% or so got no clear call; they are omitted. This is one part of the list.
Please respond with Condition met when measured normalized growth is strictly beneath 1, and with Condition not met in all other cases.

- smiles_code: "O=S(=O)(c1ccc(Cl)cc1)N1CCN(Cc2ccccc2)CC1"
  label: "Condition met"
- smiles_code: "Cc1c(C)c(C)c(S(=O)(=O)Nc2ccccc2N)c(C)c1C"
  label: "Condition met"
- smiles_code: "CCCc1ccc(/C(C)=N\\O)cc1"
  label: "Condition met"
- smiles_code: "O=C(Nc1cc(-c2ccccc2)[nH]n1)c1ccccc1"
  label: "Condition met"
- smiles_code: "CN1CCN(C2=Nc3cc(Cl)ccc3Nc3ccccc32)CC1"
  label: "Condition not met"

* * *

Assay: chemical genetic growth profiling, strain panel (AID 1159580);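 note: tested at 20 µM; growth read once vehicle control cultures reached saturation at 30 °C; 1 = growth at the plate median or of vehicle wells; lower values mean less growth of the strain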
Settings: S. cerevisiae deletion strains, growth OD, locus YGL240W, strain doc1, stronger effect = lower value
The campaign covered roughly 5,500 compounds. About 2,000 (36%) were called active. Inconclusive results (about 18%) are left out. This is one part of the list.
Readings of normalized growth for the listed compounds
endpoint_label: normalized growth

- compound: "O=C(c1ccccc1)c1ccc2n1CCC2C(=O)O (stereo unspecified)"
  endpoint_label: "normalized growth"
  meas_value: 1.02
- compound: "NS(=O)(=O)c1cc2c(cc1Cl)NCNS2(=O)=O"
  endpoint_label: "normalized growth"
  meas_value: 1
- compound: "O=C1c2cccc(O)c2C(=O)c2c(O)cccc21"
  endpoint_label: "normalized growth"
  meas_value: 0.886
- compound: "COCC1=C(C(=O)OC(C)OC(=O)OC(C)C)N2C(=O)[C@@H](NC(=O)/C(=N\\OC)c3csc(N)n3)[C@H]2SC1 (stereo partly specified)"
  endpoint_label: "normalized growth"
  meas_value: 0.981
- compound: "CC(=O)Nc1c(I)cc(I)c(C(=O)O)c1I"
  endpoint_label: "normalized growth"
  meas_value: 0.974
- compound: "CN1CCN(C2=Nc3cc(Cl)ccc3Nc3ccccc32)CC1"
  endpoint_label: "normalized growth"
  meas_value: 1.03

* * *

Assay: chemical genetic growth profiling, strain panel (AID 1159580);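 note: tested at 20 µM; growth read once vehicle control cultures reached saturation at 30 °C; 1 = growth at the plate median or of vehicle wells; lower values mean less growth of the strain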
Details: S. cerevisiae deletion strains, growth OD, locus YJL187C, strain SWE1 (second series), stronger effect = lower value
About 2,000 (36%) of roughly 5,500 compounds were called active. About 18% were inconclusive and are not listed. Some of the results follow.
endpoint_label: normalized growth

- compound: "O=C(CCc1ccc(O)cc1)c1c(O)cc(O)cc1O"
  endpoint_label: "normalized growth"
  meas_value: 0.995
- compound: "CNC(=O)Oc1ccccc1OC(C)C"
  endpoint_label: "normalized growth"
  meas_value: 1.02
- compound: "COc1ccc([C@@H](C)C(=O)c2ccc(O)cc2O)cc1"
  endpoint_label: "normalized growth"
  meas_value: 0.953
- compound: "O=C1c2cccc(O)c2C(=O)c2c(O)cccc21"
  endpoint_label: "normalized growth"
  meas_value: 0.611
- compound: "COc1ccc(-c2c(OC)c3c(OC)c4c(cc3oc2=O)OC(C)(C)C=C4)cc1"
  endpoint_label: "normalized growth"
  meas_value: 1
- compound: "Cc1cc(O)c2c(c1)C(=O)c1cccc(O)c1C2=O"
  endpoint_label: "normalized growth"
  meas_value: 0.954
- compound: "O=C(O)c1cc(O)c2c(c1)C(=O)c1cc(O)cc(O)c1C2=O"
  endpoint_label: "normalized growth"
  meas_value: 0.952
- compound: "CC(=O)Oc1c(C)c(C)c2c(c1C)CCC(C)(CCCC(C)CCCC(C)CCCC(C)C)O2 (configuration not stated)"
  endpoint_label: "normalized growth"
  meas_value: 1.02
- compound: "O=C1c2ccccc2C(=O)c2ccccc21"
  endpoint_label: "normalized growth"
  meas_value: 0.982
- compound: "CNC(C)(C)Cc1ccccc1"
  endpoint_label: "normalized growth"
  meas_value: 0.986
- compound: "COc1cc(O)ccc1C(C)=O"
  endpoint_label: "normalized growth"
  meas_value: 0.974
- compound: "CC(=O)OCC1=C(C(=O)O)N2C(=O)[C@@H](NC(=O)CSc3ccncc3)[C@H]2SC1"
  endpoint_label: "normalized growth"
  meas_value: 1

* * *

Parameter: normalized growth. Scope: all listed entries.
Assay: chemical genetic growth profiling, strain panel (AID 1159580);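 note: tested at 20 µM; growth read once vehicle control cultures reached saturation at 30 °C; 1 = growth at the plate median or of vehicle wells; lower values mean less growth of the strain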
Conditions: S. cerevisiae deletion strains, growth OD, locus YLR221C, strain rsa3, stronger effect = lower value
The whole screen tested about 5,500 compounds, of which about 2,000 (36%) were called active. Not shown: some 18% with an inconclusive outcome. The list shows a part of the results.

- molecule: "O=C(Nc1ccc([N+](=O)[O-])cc1Cl)c1cc(Cl)ccc1O"
  normalized growth: 0.906
- molecule: "CC(=O)Oc1c(C)c(C)c2c(c1C)CCC(C)(CCCC(C)CCCC(C)CCCC(C)C)O2 (configuration not stated)"
  normalized growth: 1
- molecule: "CC(C)[C@@H]1CC[C@@H](C)CC1=O"
  normalized growth: 1.01
- molecule: "CO/N=C(/C(=O)NC1C(=O)N2C(C(=O)OCOC(=O)C(C)(C)C)=C(/C=C\\c3scnc3C)CSC12)c1csc(N)n1 (configuration not stated)"
  normalized growth: 0.994
- molecule: "CC(=O)Nc1c(I)cc(I)c(C(=O)O)c1I"
  normalized growth: 1.01
- molecule: "NC(Cc1ccc(Cl)cc1)C(=O)O (configuration not stated)"
  normalized growth: 0.996
- molecule: "Cc1cc2nc3c(=O)[nH]c(=O)nc-3n(CC(O)C(O)C(O)CO)c2cc1C (configuration not stated)"
  normalized growth: 0.937
- molecule: "CNC(=O)N(C)c1nnc(C(C)(C)C)s1"
  normalized growth: 1.01
- molecule: "Cn1c(=O)c2c(ncn2C)n(C)c1=O"
  normalized growth: 0.89
- molecule: "Cn1c(=O)c2c(ncn2CCO)n(C)c1=O"
  normalized growth: 1.01
- molecule: "O=C(c1ccccc1)c1ccc2n1CCC2C(=O)O (configuration not stated)"
  normalized growth: 1.01
- molecule: "CN1CCCCC1c1ccc(-c2cccnc2)nc1 (configuration not stated)"
  normalized growth: 0.994
- molecule: "C=C[C@H]1CN2CC[C@H]1C[C@H]2[C@H](O)c1ccnc2ccccc12"
  normalized growth: 0.989
- molecule: "CC(=O)OCC1=C(C(=O)O)N2C(=O)[C@@H](NC(=O)CSc3ccncc3)[C@H]2SC1"
  normalized growth: 1.03
- molecule: "Cn1cnc2c1c(=O)[nH]c(=O)n2C"
  normalized growth: 0.976
- molecule: "CC(=O)NC1C(O)OC(COS(=O)(=O)O)C(OC2OC(C(=O)O)C(OC3OC(CO)C(OC4OC(C(=O)O)C(O)C(O)C4OS(=O)(=O)O)C(OS(=O)(=O)O)C3NS(=O)(=O)O)C(O)C2OS(=O)(=O)O)C1O (configuration not stated)"
  normalized growth: 0.969
- molecule: "CCCN(CCC)c1c([N+](=O)[O-])cc(C(F)(F)F)cc1[N+](=O)[O-]"
  normalized growth: 1
- molecule: "CC(=O)CCCCn1c(=O)c2c(ncn2C)n(C)c1=O"
  normalized growth: 1.02
- molecule: "CC(=O)O[C@@H]1C2CC[C@@H]3C1(C[C@@H](O)[C@@]1(O)[C@@H](C[C@H](O)C1(C)C)[C@]3(C)O)C[C@@]2(C)O (some centres not stated)"
  normalized growth: 0.992
- molecule: "O=C(O)[C@H]1/C(=C/CO)O[C@@H]2CC(=O)N21"
  normalized growth: 1.01
- molecule: "CC(NC(C)(C)C)C(=O)c1cccc(Cl)c1 (configuration not stated)"
  normalized growth: 1.01
- molecule: "O=c1c(O)c(-c2ccccc2)oc2cccc(O)c12"
  normalized growth: 0.815
